Target: KRAS G13C (Homo sapiens, UniProt P01116+P62937, G13C)
Sequence (P01116 1-169 isoform P01116-2 G13C): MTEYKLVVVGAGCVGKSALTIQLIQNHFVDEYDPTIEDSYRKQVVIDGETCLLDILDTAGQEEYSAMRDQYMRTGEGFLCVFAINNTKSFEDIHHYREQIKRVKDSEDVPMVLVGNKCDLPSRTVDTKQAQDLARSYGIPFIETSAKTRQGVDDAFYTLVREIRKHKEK
Sequence (P62937 whole entry): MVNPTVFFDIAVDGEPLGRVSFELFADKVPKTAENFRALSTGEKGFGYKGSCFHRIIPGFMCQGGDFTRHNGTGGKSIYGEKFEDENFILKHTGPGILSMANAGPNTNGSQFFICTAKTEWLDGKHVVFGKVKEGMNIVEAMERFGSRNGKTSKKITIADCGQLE
Test: Disruption of BRAF RBD interaction with Ras (FRET / MOA assay, with Cyclophilin A)
Format: biochemical
Settings: KRAS G13C; read-out: KRAS G13C FRET data IC50
From the text: This protocol may also be executed substituting other Ras proteins or nucleotides. The purpose of this biochemical assay was to measure the ability of test compounds to facilitate ternary complex formation between a nucleotide-loaded K-Ras isoform and Cyclophilin A; the resulting ternary complex disrupts binding to a BRAF^RBD construct, inhibiting K-Ras signaling through a RAF effector. Data is reported as IC50 values. […]
pIC50: −log10 of the molar value.
REPORTED_METRIC: pIC50

Recorded pIC50, per entry:
COMPOUND	REPORTED_METRIC	TEST_RESULT
C=CC(=O)N1CC[C@H](C(=O)N(C)[C@H](C(=O)N[C@H]2Cc3cc(O)cc(c3)-c3ccc4c(c3)c(c(-c3ccncc3COC)n4CC)CC(C)(C)COC(=O)[C@@H]3CCCN(N3)C2=O)C(C)C)C1 [Example A091]	pIC50	6.00 to 7.00
CCn1c(-c2ccccc2CN(C)C)c2c3cc(ccc31)-c1cc(O)cc(c1)C[C@H](NC(=O)[C@H](C(C)C)N(C)C(=O)c1ccc(NC(=O)/C=C/CN(C)C)cn1)C(=O)N1CCC[C@H](N1)C(=O)OCC(C)(C)C2 [Example A046]	pIC50	7.00 to 8.00

Hi team, please reply with pIC50 for each item in this list.
1. C=CC(=O)N1CC[C@H](C(=O)N(C)[C@H](C(=O)N[C@H]2Cc3cc(O)cc(c3)-c3ccc4c(c3)c(c(-c3ccccc3[C@H](C)OC)n4CC)CC(C)(C)COC(=O)[C@@H]3CCCN(N3)C2=O)C(C)C)C1 [Example A022]
2. C=CC(=O)N1CC[C@@]2(CCN2C(=O)N(C)[C@H](C(=O)N[C@H]2Cc3nc(cs3)-c3ccc4c(c3)c(c(-c3cccnc3[C@H](C)OC)n4CC)CC(C)(C)COC(=O)C3CCCN(N3)C2=O)N(C)C)C1 (single isomer, unassigned) [Example A661]
3. C=CC(=O)N1CCOC2(CCN(C(=O)N(C)[C@H](C(=O)N[C@H]3Cc4cc(CF)cc(c4)-c4ccc5c(c4)c(c(-c4cccnc4[C@H](C)OC)n5CC(F)(F)F)CC(C)(C)COC(=O)C4CCCN(N4)C3=O)C(C)C)CC2)C1 (some centres unmarked) [Example A605]
4. C=CC(=O)N1CCCN(C(=O)N(C)[C@H](C(=O)N[C@H]2Cc3cc(O)cc(c3)-c3ccc4c(c3)c(c(-c3ccccc3CCOC)n4CC)CC(C)(C)COC(=O)[C@@H]3CCCN(N3)C2=O)C(C)C)CC1 [Example A013]

6.00 to 7.00
6.00 to 7.00
7.00 to 8.00
6.00 to 7.00

Okay, here is my list. What is pIC50 for each of these?
1. C=CC(=O)N1CC[C@H](C(=O)N(C)[C@H](C(=O)N[C@H]2Cc3cc(O)cc(c3)-c3ccc4c(c3)c(c(-c3c(F)cccc3CCOC)n4CC)CC(C)(C)COC(=O)[C@@H]3CCCN(N3)C2=O)C(C)C)C1 [Example A025]
2. CCn1c(-c2cccnc2[C@H](C)OC)c2c3cc(ccc31)-c1cccc(c1)C[C@H](NC(=O)[C@@H](CN1CC[C@]3(CCN(C(=O)C#C[C@H]4COCCN4C)C3)C1=O)C(C)C)C(=O)N1CCCC(N1)C(=O)OCC(C)(C)C2 (some centres unmarked) [Example A592]
3. CCn1c(-c2cccnc2COC)c2c3cc(ccc31)-c1cc(O)cc(c1)C[C@H](NC(=O)[C@H](C(C)C)N(C)C(=O)C1CN(C(=O)C#CCN(C)C)C1)C(=O)N1CCC[C@H](N1)C(=O)OCC(C)(C)C2 [Example A097]
4. C=CC(=O)N1CC[C@H](C(=O)N(C)[C@H](C(=O)N[C@H]2Cc3cc(O)cc(c3)-c3ccc4c(c3)c(c(-c3ccccc3N3CCOCC3)n4CC)CC(C)(C)COC(=O)[C@@H]3CCCN(N3)C2=O)C(C)C)C1 [Example A026]
5. C=CC(=O)N1C[C@H](C)[C@H](C(=O)N(C)[C@H](C(=O)N[C@H]2Cc3cc(O)cc(c3)-c3ccc4c(c3)c(c(-c3ccccc3CN(C)C)n4CC)CC(C)(C)COC(=O)[C@@H]3CCCN(N3)C2=O)C(C)C)C1 [Example A052]
6. C=CC(=O)N1CC[C@@H](N(C)C(=O)N(C)[C@H](C(=O)N[C@H]2Cc3nc(cs3)-c3ccc4c(c3)c(c(-c3cccnc3[C@H](C)OC)n4CC(F)(F)F)CC(C)(C)COC(=O)[C@@H]3CCCN(N3)C2=O)C(C)C)C1 (atropisomer, axis not shown) [Example A728]
7. C=CC(=O)N1CC[C@H](C(=O)N(C)[C@H](C(=O)N[C@H]2Cc3cc(O)cc(c3)-c3ccc4c(c3)c(c(-c3cccnc3)n4C(C)(C)C#N)CC(C)(C)COC(=O)[C@@H]3CCCN(N3)C2=O)C(C)C)C1 [Example A074]

5.00 to 6.00
5.00 to 6.00
> 8.00
< 5.00
6.00 to 7.00
6.00 to 7.00
6.00 to 7.00

Provide pIC50 values for the following items, in order.
1. C=CC(=O)N1CC[C@H](C(=O)N(C)[C@H](C(=O)N[C@H]2Cc3cccc(c3)-c3ccc4c(c3)c(c(-c3cc(CN(C)C)cnc3[C@H](C)OC)n4CC)CC(C)(C)COC(=O)[C@@H]3CCCN(N3)C2=O)C(C)C)C1 [Example A523]
2. C=CC(=O)N(C)CC1CCN(C(=O)N(C)[C@H](C(=O)N[C@H]2Cc3nc(cs3)-c3ccc4c(c3)c(c(-c3cccnc3[C@H](C)OC)n4CC)CC(C)(C)COC(=O)C3CCCN(N3)C2=O)C(C)C)CC1 (some centres unmarked) [Example A629]
3. C=CC(=O)N1CC[C@H](C(=O)N(C)[C@H](C(=O)N[C@H]2Cc3cc(O)cc(c3)-c3ccc4c(c3)c(c(-c3ccccc3[C@@H](C)OC)n4CC)CC(C)(C)COC(=O)[C@@H]3CCCN(N3)C2=O)C(C)C)C1 [Example A029]
4. C=CS(=O)(=O)N1CC[C@H](C(=O)N(C)[C@H](C(=O)N[C@H]2Cc3cccc(c3)-c3ccc4c(c3)c(c(-c3cncnc3)n4CC)CC(C)(C)COC(=O)[C@@H]3CCCN(N3)C2=O)C(C)C)C1 [Example A171]

1. < 5.00
2. 7.00 to 8.00
3. 6.00 to 7.00
4. 5.00 to 6.00
